Target: Ghrelin receptor (Homo sapiens, UniProt Q92847)
Sequence (Q92847 whole entry): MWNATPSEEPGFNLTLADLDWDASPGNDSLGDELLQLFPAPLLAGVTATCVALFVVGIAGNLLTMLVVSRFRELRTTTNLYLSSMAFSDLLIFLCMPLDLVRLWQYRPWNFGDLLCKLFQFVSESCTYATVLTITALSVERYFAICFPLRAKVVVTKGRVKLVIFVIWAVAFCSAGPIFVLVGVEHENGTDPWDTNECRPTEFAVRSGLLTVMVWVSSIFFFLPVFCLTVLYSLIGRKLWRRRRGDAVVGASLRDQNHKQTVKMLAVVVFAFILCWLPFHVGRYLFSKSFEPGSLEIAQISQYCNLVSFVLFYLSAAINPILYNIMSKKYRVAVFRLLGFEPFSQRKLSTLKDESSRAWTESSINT
Test: Receptor Selection and Amplification Technology (R-SAT) assay
Type: cell-based
Design: expressed in transfected cells; host or cells: NIH3T3
Conditions: percent inhibition at saturating ligand, normalized to reference ligand Substance P analog = 100%; read-out: RSAT Eff(%)
Listed here are compounds together with their documented Emax.
QUANTITY_NAME: Emax (%)

• CCc1cccc2c(C(C)=O)cn(CCCN3CCN(CCOc4ccccc4)CC3)c12 = 110
• COc1cccc2c(C(C)=O)cn(CCCN3CCN(c4ccc(C#N)cc4)CC3)c12 = 90
• CCCCC1CCN(CCCn2cc(C(C)=O)c3cccc(OC)c32)CC1 = 116
• CC(=O)c1cn(CCCN2CCC(C(=O)c3ccccc3)CC2)c2c(Br)cccc12 = 84
• CC(=O)c1cn(CCCN2CCC(Oc3cccc(Cl)c3)CC2)c2c(C)cccc12 = 96
• CC(=O)c1cn(CCCN2CCC(Oc3ccccc3Cl)CC2)c2cc(Br)ccc12 = 67
• CC(=O)CCc1cn(CCCN2CCC(Oc3ccc(F)cc3)CC2)c2ccccc12 = 80
• CC(=O)c1cn(CCCN2C3CCC2CC(CCc2ccccc2)C3)c2ccccc12 (centres unmarked) [drawing 267] = 105
• CC(=O)c1c(C)n(CCCN2CCCN(Cc3ccc(F)cc3)CC2)c2c(Br)cccc12 = 49
• CC(=O)c1cn(CCCN2CCC(Oc3cccc(Cl)c3)CC2)c2c(Br)cccc12 = 92
• O=C(c1cn(CCCN2CCC(c3nc4ccccc4s3)CC2)c2ccccc12)C(F)(F)F = 88
• COc1ccccc1C1CCN(CCCCn2cc(C(C)=O)c3ccccc32)CC1 = 58
• CC(=O)c1cn(CCCN2CCC(C(=O)c3ccccc3)CC2)c2ccc(Br)cc12 = 60
• CC(=O)c1cn(CCCN2C3CCC2CC(Oc2ccc(F)cc2)C3)c2c(Br)cccc12 (centres unmarked) = 81
• COc1cccc2c(C#N)cn(CCCN3CCCC(Cc4ccccc4Cl)C3)c12 (centres unmarked) = 62
• O=C(CC1CC2CCC(C1)N2CCCn1cc(C(=O)C(F)(F)F)c2cccnc21)c1ccc(Cl)cc1 (centres unmarked) = 10
• CC(=O)c1cn(CCCN2CCC(C(=O)c3ccccc3)CC2)c2c(C)cccc12 = 96
• O=C(c1ccccc1)C1CCN(CCCn2cc(C(=O)C(F)(F)F)c3ccccc32)CC1 = 63
• CCCOC1CCN(CC(C)Cn2cc(C(C)=O)c3ccccc32)CC1 (centres unmarked) = 74
• O=C(c1cn(CCCN2CCN(CCOc3ccc(Cl)cc3)CC2)c2ncccc12)C(F)(F)F = 38
• COc1cccc2c(C(C)=O)cn(CCCN3CCN(c4ncccc4C(F)(F)F)CC3)c12 = 108
• CC(=O)c1cn(CCCN2C3CCC2CC(CCc2ccccc2)C3)c2c(Cl)cccc12 (centres unmarked) = 109
• O=C(c1cn(CCCNC2Cc3ccccc3C2)c2ncccc12)C(F)(F)F = -3
• O=C(c1cn(CCCN2CCCN(CCc3ccccc3)CC2)c2ncccc12)C(F)(F)F = 51
• CCc1cccc2c(C(C)=O)cn(CCCN3CCN(c4ncc(C(F)(F)F)cc4Cl)CC3)c12 = 90
• CC(=O)c1cn(CCCN2C3CCC2CC(CCc2ccccc2)C3)c2c(Br)cccc12 (centres unmarked) = 107
• CCCCC1CCN(CCCn2cc(C(=O)C(F)(F)F)c3ccccc32)CC1 = 74
• COc1cccc2c(C#N)cn(CCCN3CCN(c4ncc(C(F)(F)F)cc4Cl)CC3)c12 = 97
• CCCCC1CCN(CCCn2cc(C(=O)CC)c3ccccc32)CC1 = 92
• O=C(c1cn(CCCN2C3CCC2CC(O)(c2ccc(F)cc2)C3)c2ccccc12)C(F)(F)F (centres unmarked) = 58
• CC(=O)c1cn(CCCN2C3CCC2CC(Oc2ccccc2Cl)C3)c2ncccc12 (centres unmarked) = 108
• CCCCC1CCN(CC(C)Cn2cc(C(C)=O)c3ccccc32)CC1 (centres unmarked) = 76
• CC(=O)c1cn(CC(C)CN2CCN(C(C)c3ccccc3)CC2)c2ccccc12 (centres unmarked) = 35
• CCc1cccc2c(C(C)=O)cn(CCCN3CCC(CCOc4ccc(Cl)cc4)CC3)c12 = 76
• O=C(c1cn(CCCN2CCN(Cc3ccc(Cl)cc3Cl)CC2)c2ncccc12)C(F)(F)F = 78

----------
Target: Ghrelin receptor (Homo sapiens, UniProt Q92847)
Experiment: Receptor Selection and Amplification Technology (R-SAT) assay
Assay type: cell-based
Set-up: expressed in transfected cells; host or cells: NIH3T3
Conditions: […]; '—' not defined (nd used separately); read-out: RSAT pIC50 (converted)
QUANTITY_NAME: IC50

• CC(C)CC(=O)c1cn(CCCN2CCC(Oc3ccc(F)cc3)CC2)c2ccccc12 = 0.1 µM
• CC(=O)c1cn(CCCN2CCC(N3C(=O)Cc4ccccc43)CC2)c2c(Br)cccc12 = 0.1 µM
• CC(=O)c1cn(CCCN2CCC(N3C(=O)Cc4ccccc43)CC2)c2c(C#N)cccc12 = 0.02 µM

----------
Overview of reported Emax across a group of compounds:
Target: Ghrelin receptor (Homo sapiens)
Assay: Receptor Selection and Amplification Technology (R-SAT) assay
Format: cell-based
Set-up: expressed in transfected cells; host or cells: NIH3T3
Details: read-out: RSAT Eff(%)
QUANTITY_NAME: Emax (%)

* COc1cccc2c(C(=O)Cc3ccccc3)cn(CCCN3CCN(CCOc4ccc(Cl)cc4)CC3)c12 | 82
* COc1ccccc1C1CCN(CCCn2cc(C(=O)NCC(C)C)c3cccc(OC)c32)CC1 | 108
* COc1cccc2c(C(=O)C3CC3)cn(CCCN3C4CCC3CC(Oc3ccccc3Cl)C4)c12 (stereo not shown) | 130
* CC(=O)c1cn(CCCN2CCC(Cc3ccccc3Cl)C2)c2c(C)cccc12 (stereo not shown) | 47
* COc1cccc2c(C(=O)Cc3ccccc3)cn(CCCN3CCN(c4ncc(C(F)(F)F)cc4Cl)CC3)c12 | 95
* COc1cccc2c(C(=O)C3CC3)cn(CCCN3CCCN(Cc4ccc(F)cc4)CC3)c12 | 92
* CC(=O)c1cn(CCCCN2C3CCC2CC(O)(c2ccc(F)cc2)C3)c2ccccc12 (stereo not shown) | 2
* COc1cccc2c(C(=O)NCc3cccc(Cl)c3)cn(CCCN3C4CCC3CC(CCc3ccccc3)C4)c12 (stereo not shown) | 115
* CC(=O)c1cn(CCCN2C3CCC2CC(CC(=O)c2ccc(Cl)cc2)C3)c2c(C)cccc12 (stereo not shown) | 19
* COc1cccc2c(C(=O)c3ccccc3)cn(CCCN3CCCN(Cc4ccc(F)cc4)CC3)c12 | 96
* COc1cccc2c(C(=O)NCc3cccc(C)c3)cn(CCCN3CCCC(Oc4ccc(Cl)cc4)C3)c12 (stereo not shown) | 14
* COc1cccc2c(C(=O)C3CC3)cn(CCCNCCOc3ccccc3)c12 | 83
* COc1cccc2c(C(=O)NCc3cccc(C)c3)cn(CCCN3CCCN(CCc4ccccc4)CC3)c12 | 110
* COc1cccc2c(C(C)=O)cn(CCCN3C4CC[C@H]3C[C@@H](Oc3ccc(Cl)cc3)C4)c12 | 114
* COc1cccc2c(C(=O)NCC(C)C)cn(CCCN3C4CCC3CC(CC(=O)c3ccccc3)C4)c12 (stereo not shown) | 145
* CC(=O)c1c(C)n(CCCN2CCCC(Oc3ccc(Cl)cc3)C2)c2c(Br)cccc12 (stereo not shown) | 24

----------
Target: Ghrelin receptor (Homo sapiens)
Assay: Receptor Selection and Amplification Technology (R-SAT) assay
Format: cell-based
Set-up: expressed in transfected cells; host or cells: NIH3T3
Settings: percent inhibition at saturating ligand, normalized to reference ligand Substance P analog = 100%; read-out: RSAT Eff(%)
QUANTITY_NAME: Emax (%)

- CCc1cccc2c(C(C)=O)cn(CCCNCCOc3ccccc3)c12: 106
- CC(=O)c1cn(CC(O)CN2CCC(Oc3ccccc3Cl)CC2)c2ccccc12 (centres unmarked): 69
- CC(=O)c1cn(CCCN2C3CCC2CC(Oc2ccc(F)cc2)C3)c2c(Cl)cccc12 (centres unmarked): 87
- CCC(=O)c1cn(CCCN2CCN(C(C)c3ccccc3)CC2)c2ccccc12 (centres unmarked): 57
- CC(=O)c1cn(CC(C)CN2CCC(Cc3ccccc3)CC2)c2ccccc12 (centres unmarked): 121
- CC(=O)c1cn(CCCN2CCC(c3nc(-c4ccncc4)no3)CC2)c2c(C)cccc12: 137
- CCC(=O)c1cn(CCCN2CCC(Oc3ccccc3Cl)CC2)c2ccccc12: 76
- CC(=O)c1cn(CCCN2CCC(Oc3ccccc3Cl)CC2)c2c(Br)cccc12: 96
- CC(=O)c1cn(CCCCN2CCC(c3nc4ccccc4s3)CC2)c2ccccc12: 81
- CC(=O)c1cn(CCCN2C3CCC2CC(Oc2ccc(Cl)cc2)C3)c2c(C)cccc12 (centres unmarked): 99
- CC(=O)c1cn(CCCN2CCN(CCOc3ccccc3)CC2)c2c(Br)cccc12: 91
- COc1cccc2c(C#N)cn(CCCN3CCN(CCOc4ccccc4)CC3)c12: 42
- COc1ccc2[nH]c3c(c2c1)CCN(CCCCn1cc(C(C)=O)c2ccccc21)C3: 9
- CC(=O)c1cn(CCCN2CCC(Oc3ccc(Cl)cc3)CC2)c2ccccc12: 104
- COc1ccccc1C1CCN(CCCn2cc(CCC(C)=O)c3ccccc32)CC1: 78
- CC(=O)c1cn(CCCN2CCC(C(=O)c3ccccc3)CC2)c2c(Cl)cccc12: 92
- CC(=O)c1cn(CCCN2CCC(c3nc4ccccc4s3)CC2)c2c(Br)cccc12: 81
- CCCCC1CCN(CCCn2cc(C(=O)CC(C)C)c3ccccc32)CC1: 85
- CCC(=O)c1cn(CCCN2CCC(c3ccccc3OC)CC2)c2ccccc12: 59
- CC(=O)c1cn(CCCN2CCC3(CC2)CC(=O)c2ccccc2O3)c2c(C)cccc12: 71
